Biological target: APJ (Homo sapiens, UniProt P35414)
Construct: expressed in transfected cells; host or cells: CHO cells (CHO-A10 clone)
Sequence (P35414 1-380): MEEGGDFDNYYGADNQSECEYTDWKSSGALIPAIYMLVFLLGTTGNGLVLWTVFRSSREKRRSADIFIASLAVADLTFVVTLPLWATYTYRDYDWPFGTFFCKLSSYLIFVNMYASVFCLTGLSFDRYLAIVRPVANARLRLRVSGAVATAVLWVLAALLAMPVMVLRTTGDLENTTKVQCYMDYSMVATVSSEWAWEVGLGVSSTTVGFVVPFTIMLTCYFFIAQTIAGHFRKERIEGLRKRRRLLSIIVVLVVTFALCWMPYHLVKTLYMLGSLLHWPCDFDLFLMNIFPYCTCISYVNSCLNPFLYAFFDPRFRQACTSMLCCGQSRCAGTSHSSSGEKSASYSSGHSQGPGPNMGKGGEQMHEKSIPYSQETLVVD
Assay: Suppression activity on forskolin stimulated cAMP production
Type: cell-based
Conditions: suppression of cAMP production stimulated with 1 µM forskolin; CHO-A10 clone cells; 37°C for 30 minutes; cAMP EIA
No end group written: not given here.
testReadout: EC50 (nM)
Answer with a number only, understood to be in nM.

Query :: Notebook: pull reported EC50 for APJ (Homo sapiens, UniProt P35414), entry LVQPRGSRNGPGPWQGGRRKFRRQRPRLSHKGPMPF [reference compound]
Result :: 0.52

* * *

Biological target: APJ (Homo sapiens, UniProt P35414)
Assay: Suppression activity on forskolin stimulated cAMP production
Conditions: suppression of cAMP production stimulated with 1 µM forskolin; CHO-A10 clone cells; 37°C for 30 minutes; cAMP EIA
Non-standard residues stand in square brackets, D forms with d. Residues, ends and D or L forms follow the SMILES beside them. Phe(4-Cl) = N[C@@H](Cc1ccc(Cl)cc1)C(=O)O; Nle = CCCC[C@H](N)C(=O)O
testReadout: pEC50
Keep it numeric: pEC50 is minus log10 of the concentration in mol/L.

CSCC[C@H](NC(=O)[C@@H]1CCCN1C(=O)CNC(=O)[C@H](CCCCN)NC(=O)[C@H](Cc1c[nH]cn1)NC(=O)[C@H](CO)NC(=O)[C@H](CC(C)C)NC(=O)[C@H](CCCNC(=N)N)NC(=O)[C@@H]1CCCN1C(=O)[C@@H](N)CCCNC(=N)N)C(=O)N1CCC[C@H]1C(=O)N[C@@H](Cc1ccc2ccccc2c1)C(=O)O ... 9.55

Query :: Give its pEC50 value. Item: CC(C)C[C@H](NC(=O)[C@H](CCCNC(=N)N)NC(=O)[C@@H]1CCCN1C(=O)[C@H](CCCNC(=N)N)NC(=O)[C@@H]1CCC(=O)N1)C(=O)N[C@@H](CO)C(=O)N[C@@H](Cc1c[nH]cn1)C(=O)N[C@@H](CCCCN)C(=O)NCC(=O)N1CCC[C@H]1C(=O)N[C@@H](CC1CCCCC1)C(=O)N1CCC[C@H]1C(=O)N[C@@H](Cc1ccccc1)C(=O)O
Result :: 9.47

Query :: Now this one: CSCC[C@H](NC(=O)[C@@H]1CCCN1C(=O)CNC(=O)[C@H](CCCCN)NC(=O)[C@H](Cc1c[nH]cn1)NC(=O)[C@H](CO)NC(=O)[C@H](CC(C)C)NC(=O)[C@H](CCCNC(=N)N)NC(=O)[C@@H]1CCCN1C(=O)[C@@H](N)CCCNC(=N)N)C(=O)N[C@@H](Cc1ccc(Cl)cc1)C(=O)O
Result :: 10.00

Query :: Now this one: CCCC[C@H](NC(=O)[C@H](Cc1c[nH]cn1)NC(=O)[C@H](CO)NC(=O)[C@H](CC(C)C)NC(=O)[C@H](CCCNC(=N)N)NC(=O)[C@@H]1CCCN1C(=O)[C@H](CCCNC(=N)N)NC(=O)[C@H](CCC(N)=O)NC(=O)[C@H](CCCNC(=N)N)NC(=O)[C@@H](N)CCCNC(=N)N)C(=O)NCC(=O)N1CCC[C@H]1C(=O)N[C@@H](CCSC)C(=O)N1CCC[C@H]1C(=O)N[C@@H](Cc1ccc(Cl)cc1)C(=O)O [Example 38] (H-RRQRPRLSH[Nle]GPMP[Phe(4-Cl)]-OH)
Result :: 9.46

Query :: Now this one: CSCC[C@H](NC(=O)[C@@H]1CCCN1C(=O)CNC(=O)[C@H](CCCCN)NC(=O)[C@H](Cc1c[nH]cn1)NC(=O)[C@H](CO)NC(=O)[C@H](CC(C)C)NC(=O)[C@H](CCCNC(=N)N)NC(=O)[C@@H]1CCCN1C(=O)[C@@H](N)CCCNC(=N)N)C(=O)N[C@@H](Cc1ccc2ccccc2c1)C(=O)O
Result :: 9.52

* * *

Biological target: APJ (Homo sapiens, UniProt P35414)
Sequence (P35414 1-380): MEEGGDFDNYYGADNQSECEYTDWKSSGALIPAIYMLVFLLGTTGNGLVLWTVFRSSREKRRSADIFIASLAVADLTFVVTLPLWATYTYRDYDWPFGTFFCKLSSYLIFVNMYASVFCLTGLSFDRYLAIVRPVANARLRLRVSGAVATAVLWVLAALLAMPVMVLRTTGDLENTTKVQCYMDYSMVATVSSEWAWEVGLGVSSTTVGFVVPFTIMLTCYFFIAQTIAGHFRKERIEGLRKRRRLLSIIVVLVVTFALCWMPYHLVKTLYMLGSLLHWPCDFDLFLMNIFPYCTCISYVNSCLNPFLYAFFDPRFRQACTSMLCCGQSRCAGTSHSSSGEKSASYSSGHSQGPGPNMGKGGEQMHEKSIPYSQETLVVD
Test: Suppression activity on forskolin stimulated cAMP production
Conditions: suppression of cAMP production stimulated with 1 µM forskolin; CHO-A10 clone cells; 37°C for 30 minutes; cAMP EIA
Non-standard residues stand in square brackets, D forms with d. Residues, ends and D or L forms follow the SMILES beside them. Cha = N[C@@H](CC1CCCCC1)C(=O)O
testReadout: EC50 (nM)
Answer with a number only, understood to be in nM.

Below, 4 compounds whose answers are already recorded.
CSCC[C@H](NC(=O)[C@@H]1CCCN1C(=O)CNC(=O)[C@H](CCCCN)NC(=O)[C@H](Cc1c[nH]cn1)NC(=O)[C@H](CO)NC(=O)[C@H](CC(C)C)NC(=O)[C@H](CCCNC(=N)N)NC(=O)[C@@H]1CCCN1C(=O)[C@@H](N)CCCNC(=N)N)C(=O)N1CCC[C@H]1C(=O)N[C@@H](Cc1ccc(Cl)cc1)C(=O)O ... 0.2
CC(C)C[C@H](NC(=O)[C@H](CCCNC(=N)N)NC(=O)[C@@H]1CCCN1C(=O)[C@H](CCCNC(=N)N)NC(=O)[C@H](CCC(N)=O)NC(=O)[C@H](CCCNC(=N)N)NC(=O)[C@@H](N)CCCNC(=N)N)C(=O)N[C@@H](CO)C(=O)N[C@@H](Cc1c[nH]cn1)C(=O)N[C@@H](CCCCN)C(=O)NCC(=O)N1CCC[C@H]1C(=O)N[C@@H](CC1CCCCC1)C(=O)O [Example 36] (H-RRQRPRLSHKGP[Cha]-OH) ... 0.16
CCCC[C@H](NC(=O)[C@@H]1CCCN1C(=O)CNC(=O)[C@H](CCCCN)NC(=O)[C@H](Cc1c[nH]cn1)NC(=O)[C@H](CO)NC(=O)[C@H](CC(C)C)NC(=O)[C@H](CCCNC(=N)N)NC(=O)[C@@H]1CCCN1C(=O)[C@H](CCCNC(=N)N)NC(=O)[C@@H]1CCC(=O)N1)C(=O)N1CCC[C@H]1C(=O)N[C@@H](Cc1ccc(O)cc1)C(=O)O ... 0.19
CSCC[C@H](NC(=O)[C@@H]1CCCN1C(=O)CNC(=O)[C@H](CCCCN)NC(=O)[C@H](Cc1c[nH]cn1)NC(=O)[C@H](CO)NC(=O)[C@H](CC(C)C)NC(=O)[C@H](CCCNC(=N)N)NC(=O)[C@@H]1CCCN1C(=O)[C@@H](N)CCCNC(=N)N)C(=O)N[C@@H](CC1CCCCC1)C(=O)O ... 0.37

Next:
Query :: Notebook: pull reported EC50 for APJ (Homo sapiens, UniProt P35414), entry CSCC[C@H](NC(=O)[C@@H]1CCCN1C(=O)CNC(=O)[C@H](CCCCN)NC(=O)[C@H](Cc1c[nH]cn1)NC(=O)[C@H](CO)NC(=O)[C@H](CC(C)C)NC(=O)[C@H](CCCNC(=N)N)NC(=O)[C@@H]1CCCN1C(=O)[C@H](CCCNC(=N)N)NC(=O)[C@H](CCC(N)=O)NC(=O)[C@H](CCCNC(=N)N)NC(=O)[C@@H](N)CCCNC(=N)N)C(=O)N1CCC[C@H]1C(=O)N[C@@H](Cc1ccc(Cl)cc1)C(=O)O
Result :: 0.14
